IC50 data for mSTING-CTD (Mus musculus (Mouse), UniProt Q3TBT3) follow.

# example entries with known answers
O=C(O)Cn1c2ccccc2c(=O)c2cc(CCc3ccccc3)ccc21
10 to 50 µM
CCc1ccc2c(=O)c3ccc(Cl)c(Cl)c3n(CC(=O)O)c2c1
50 to 100 µM
Cc1ccc2c(=O)c3ccccc3n(CC(=O)O)c2c1
10 to 50 µM
Cc1ccc2c(=O)c3ccccc3n(CC(=O)O)c2c1Cl
10 to 50 µM
Cc1cc2c(=O)c3ccc(Cl)c(Cl)c3n(CC(=O)O)c2cc1C
50 to 100 µM

Tell me the measured IC50 of O=C(O)Cn1c2cc(NC3CCCCC3)ccc2c(=O)c2ccc(Cl)c(Cl)c21 , please.
10 to 50 µM

Please give the measured IC50 for this molecule: Cc1cccc2c(=O)c3ccccc3n(CC(=O)O)c12
10 to 50 µM

Query (molecule): Cc1ccc2c(=O)c3ccc(Cl)cc3n(CC(=O)O)c2c1 ; field requested: IC50
10 to 50 µM

Please give the measured IC50 for this molecule: Cc1ccc2c(=O)c3ccccc3n(CC(=O)O)c2c1C
50 to 100 µM

Fill in: IC50 of O=C(O)Cn1c2ccccc2c(=O)c2ccc(Cl)c(Cl)c21 is ___
10 to 50 µM

Quick check: IC50 of Cc1ccc2c(=O)c3cccc(Cl)c3n(CC(=O)O)c2c1 ?
< 10 µM

State the recorded IC50 for this entry: Cc1ccc2c(=O)c3ccc(F)cc3n(CC(=O)O)c2c1
10 to 50 µM

For the molecule O=C(O)Cn1c2cc(N3CCCCC3)ccc2c(=O)c2ccc(Cl)c(Cl)c21 , what IC50 is on record?
10 to 50 µM

What value of measured IC50 is listed for Cc1ccc2c(=O)c3ccc(C)cc3n(CC(=O)O)c2c1 ?
10 to 50 µM

Which IC50 reading was recorded for the molecule Cc1ccc2c(=O)c3cc(CCc4ccccc4C)ccc3n(CC(=O)O)c2c1 ?
> 100 µM

Fill blank: measured IC50 of the molecule O=C(O)Cn1c2ccccc2c(=O)c2ccc(C#Cc3ccccc3)cc21 is ____.
10 to 50 µM

What value of IC50 has been recorded for this entry: O=C(O)Cn1c2ccccc2c(=O)c2cccc(Cl)c21
10 to 50 µM

Please report the recorded IC50 for CN(C)c1ccc2c(=O)c3ccc(Cl)c(Cl)c3n(CC(=O)O)c2c1 .
10 to 50 µM

I have this molecule here, Cc1ccc2c(=O)c3c(Cl)cccc3n(CC(=O)O)c2c1 , and I need its recorded IC50.
10 to 50 µM

Could you tell me which IC50 is on file for O=C(O)Cn1c2ccccc2c(=O)c2ccc(Cl)cc21 ?
10 to 50 µM
